- Test system: NCI-H292 lung cancer cells
- Experiment notes: FDA drug screening, complete media vs cholesterol-free media without statin (TABLE 1)
- Format: cell-based, human
- Measurement setup: NCI-H292 cells, cholesterol-free media without statin
Structures can show the parent of a compound that is named as a salt.
Experimental endpoint: Cholesterol-free
Note: the reply should be a number with no unit written.

Kindly note: NCI-H292 lung cancer cells, `C[C@H](Cc1cc2c(c(C(N)=O)c1)N(CCCO)CC2)NCCOc1ccccc1OCC(F)(F)F` , Cholesterol-free value reported: 1.295

Sample `Cc1c(O)cccc1C(=O)N[C@@H](CSc1ccccc1)[C@H](O)CN1C[C@H]2CCCC[C@H]2C[C@H]1C(=O)NC(C)(C)C` , system: NCI-H292 lung cancer cells. Its Cholesterol-free is 1.095

Log: NCI-H292 lung cancer cells, compound COc1ccc([C@@H]2Sc3ccccc3N(CCN(C)C)C(=O)[C@@H]2OC(C)=O)cc1 [Diltiazem (hydrochloride)] , Cholesterol-free = 1.001

The compound CN1CCCC(CC2c3ccccc3Sc3ccccc32)C1 (centres unmarked) [Metixene hydrochloride hydrate] , tested on NCI-H292 lung cancer cells, showed Cholesterol-free of 1.293

Short answer on NCI-H292 lung cancer cells for `O=c1c(-c2ccc(O)cc2)coc2cc(O[C@@H]3O[C@H](CO)[C@@H](O)[C@H](O)[C@H]3O)ccc12` , Cholesterol-free: 1.084
